- target.entity: BRD4 (BDI_K57-E168) (Homo sapiens (Human))
- measurement.description: TR-FRET bromodomain binding assay, BRD4 first bromodomain
- experimental.conditions: His-tagged BD1, Alexa647-labeled probe 100 nM
pKi: −log10 of the molar value.
experimental.readout: pKi

molecule=CC(=O)Nc1ccc(S(=O)(=O)N2CCC(Nc3ccc(S(C)(=O)=O)cc3-c3cn(C)c(=O)c4[nH]ccc34)CC2)cc1 target_entity="BRD4 (BDI_K57-E168) (Homo sapiens (Human))" op== reported_measurement=8.39
molecule=CCNC(=O)c1cc2c(-c3ccc(C(=O)N(c4ccccc4)C4CCCCC4)cc3Oc3c(C)cccc3C)cn(C)c(=O)c2[nH]1 target_entity="BRD4 (BDI_K57-E168) (Homo sapiens (Human))" op=< reported_measurement=4.90
molecule=CCNC(=O)c1cc2c(-c3ccc(C(=O)N(CC#N)c4ccc(Cl)cc4)cc3Oc3c(C)cccc3C)cn(C)c(=O)c2[nH]1 target_entity="BRD4 (BDI_K57-E168) (Homo sapiens (Human))" op== reported_measurement=5.85
molecule=CCS(=O)(=O)c1ccc(Oc2c(C)cccc2Cl)c(-c2cn(C)c(=O)c3[nH]c(C(=O)NCC#N)cc23)c1 target_entity="BRD4 (BDI_K57-E168) (Homo sapiens (Human))" op=< reported_measurement=6.62
molecule=CN(C)CCN1CCN(C(=O)c2cccc(Oc3ccc(S(C)(=O)=O)cc3-c3cn(C)c(=O)c4[nH]ccc34)c2)CC1 target_entity="BRD4 (BDI_K57-E168) (Homo sapiens (Human))" op== reported_measurement=7.72
molecule="CCS(=O)(=O)c1ccc(OCC2CC2(F)F)c(-c2cn(C)c(=O)c3[nH]c(CN4CCN(c5cccnc5)CC4)cc23)c1 (stereo not drawn)" target_entity="BRD4 (BDI_K57-E168) (Homo sapiens (Human))" op== reported_measurement=8.31

* * *

- target.entity: BRD4 (BDI_K57-E168) (Homo sapiens (Human), UniProt O60885)
- measurement.description: TR-FRET bromodomain binding assay, BRD4 first bromodomain
- experimental.conditions: His-tagged BD1, Alexa647-labeled probe 100 nM
pKi: −log10 of the molar value.
experimental.readout: pKi

compound="Cn1cc(-c2cc(S(C)(=O)=O)ccc2Oc2cccc(C(=O)NCc3ccc(F)cc3F)c2)c2cc[nH]c2c1=O [Example 37]" reported_measurement=7.74
compound="Cn1cc(-c2cc(S(C)(=O)=O)ccc2Oc2cccc(NS(=O)(=O)c3ccc(F)cc3F)c2)c2cc[nH]c2c1=O [Example 47]" reported_measurement=8.23
compound="Cn1cc(-c2cc(S(C)(=O)=O)ccc2N[C@H]2CC[C@H](NCc3ccc(F)cc3F)CC2)c2cc[nH]c2c1=O [Example 109]" reported_measurement=8.80
compound="CCNC(=O)c1cc2c(-c3cc(S(=O)(=O)CC)ccc3Oc3c(C)cccc3CN3CCOCC3)cn(C)c(=O)c2[nH]1 [Example 146]" reported_measurement=5.48

* * *

Reported pKi values follow for various compounds
- target.entity: BRD4 (BDII_E352-M457) (Homo sapiens (Human))
- measurement.description: TR-FRET bromodomain binding assay, BRD4 second bromodomain
- experimental.conditions: His-tagged BD2, Alexa647-labeled probe 30 nM
pKi: −log10 of the molar value.
experimental.readout: pKi

test_smiles=CC(=O)N1CCN(C(=O)c2cccc(Oc3ccc(S(C)(=O)=O)cc3-c3cn(C)c(=O)c4[nH]ccc34)c2)CC1 reported_measurement=7.77
test_smiles=Cn1cc(-c2cc(S(C)(=O)=O)ccc2Oc2cccc(C(=O)NCCCN3CCCC3=O)c2)c2cc[nH]c2c1=O reported_measurement=7.96
test_smiles=Cc1nnc(C)n1C1CCN(Cc2cc3c(-c4cc(S(C)(=O)=O)ccc4Oc4ccc(F)cc4F)cn(C)c(=O)c3[nH]2)CC1 reported_measurement=6.74
test_smiles=CCNC(=O)c1cc2c(-c3cc(S(=O)(=O)CC)ccc3Oc3c(C)cccc3NCC3CC3)cn(C)c(=O)c2[nH]1 reported_measurement=8.17

* * *

- target.entity: BRD4 (BDII_E352-M457) (Homo sapiens (Human), UniProt O60885)
- measurement.description: TR-FRET bromodomain binding assay, BRD4 second bromodomain
- experimental.conditions: His-tagged BD2, Alexa647-labeled probe 30 nM
The threshold is 10 nM. Values of Ki beneath it are tagged Condition met; values meeting or exceeding it are tagged Condition not met.

compound=CCNC(=O)c1cc2c(-c3cc(S(=O)(=O)CC)ccc3Oc3c(C)cccc3CN3CCC3=O)cn(C)c(=O)c2[nH]1 assigned_category="Condition not met"
compound=CCNC(=O)c1cc2c(-c3ccc(C(=O)N(C)C4CCN(OC(=O)CC)CC4)cc3Oc3c(C)cccc3C)cn(C)c(=O)c2[nH]1 assigned_category="Condition not met"
compound=Cn1cc(-c2cc(S(C)(=O)=O)ccc2Oc2cccc(NS(=O)(=O)C3CC3)c2)c2cc[nH]c2c1=O assigned_category="Condition met"
compound=CCS(=O)(=O)c1ccc(Oc2ccc(F)cc2F)c(-c2cn(C)c(=O)c3[nH]c(-c4cccnc4N4CCOCC4)cc23)c1 assigned_category="Condition not met"
compound="CCNC(=O)c1cc2c(-c3ccc(C(=O)N(CCCN4CCCC4)C(C)Cc4ccccc4)cc3Oc3c(C)cccc3C)cn(C)c(=O)c2[nH]1 (stereo not shown)" assigned_category="Condition met"
compound=Cn1cc(-c2cc(S(C)(=O)=O)ccc2Oc2cccc(NS(=O)(=O)c3cccc(C#N)c3)c2)c2cc[nH]c2c1=O assigned_category="Condition met"
compound=CSCC(=O)N1CCC(Nc2ccc(S(C)(=O)=O)cc2-c2cn(C)c(=O)c3[nH]ccc23)CC1 assigned_category="Condition met"

* * *

- target.entity: BRD4 (BDII_E352-M457) (Homo sapiens (Human))
- measurement.description: TR-FRET bromodomain binding assay, BRD4 second bromodomain
- experimental.conditions: His-tagged BD2, Alexa647-labeled probe 30 nM
pKi: −log10 of the molar value.
Below: a set of entries, each annotated with reported pKi.
experimental.readout: pKi

compound="CCNC(=O)c1cc2c(-c3cc(S(=O)(=O)CC)ccc3Oc3c(C)cccc3NCC3CCOC3)cn(C)c(=O)c2[nH]1 (stereo not drawn) [Example 133]" reported_measurement=7.69
compound="CN(C)CCCOc1ccc(CNc2cccc(Oc3ccc(S(C)(=O)=O)cc3-c3cn(C)c(=O)c4[nH]ccc34)c2)cc1 [Example 74]" reported_measurement=8.85
compound="Cn1cc(-c2cc(S(C)(=O)=O)ccc2Oc2cccc(NS(=O)(=O)Cc3ccccc3)c2)c2cc[nH]c2c1=O [Example 38]" reported_measurement=8.72
compound="CCNC(=O)c1cc2c(-c3ccc(C(=O)N(CCN(CC)CC)c4ccccc4OC)cc3Oc3c(C)cccc3C)cn(C)c(=O)c2[nH]1 [Example 178]" reported_measurement=8.60
compound="CCNC(=O)c1cc2c(-c3ccc(C(=O)N(Cc4ccccc4)Cc4ccc(Cl)cc4)cc3Oc3c(C)cccc3C)cn(C)c(=O)c2[nH]1 [Example 173]" reported_measurement=7.19
compound="Cn1cc(-c2cc(S(C)(=O)=O)ccc2NC2CCN(S(=O)(=O)c3ccccc3)CC2)c2cc[nH]c2c1=O [Example 84]" reported_measurement=8.05
compound="CCNC(=O)c1cc2c(-c3ccc(C(=O)N(CCN(C)C)c4ncccn4)cc3Oc3c(C)cccc3C)cn(C)c(=O)c2[nH]1 [Example 174]" reported_measurement=7.88
compound="CN(CC#N)C(=O)c1cccc(Oc2ccc(S(C)(=O)=O)cc2-c2cn(C)c(=O)c3[nH]ccc23)c1 [Example 32]" reported_measurement=8.00
compound="Cn1cc(-c2cc(S(C)(=O)=O)ccc2Oc2cccc(C(=O)N3CCN(C4CCCC4)CC3)c2)c2cc[nH]c2c1=O [Example 28]" reported_measurement=7.96
compound="CCS(=O)(=O)c1ccc(OCC2CC2(F)F)c(-c2cn(C)c(=O)c3[nH]c(CN4CCN(c5ccncc5)CC4)cc23)c1 (stereo not drawn) [Example 16]" reported_measurement=7.52
compound="Cn1cc(-c2cc(S(C)(=O)=O)ccc2Oc2cccc(NS(=O)(=O)c3cccc(OC(F)F)c3)c2)c2cc[nH]c2c1=O [Example 48]" reported_measurement=8.62
compound="CC(C)c1ccc(S(=O)(=O)Nc2cccc(Oc3ccc(S(C)(=O)=O)cc3-c3cn(C)c(=O)c4[nH]ccc34)c2)cc1 [Example 46]" reported_measurement=8.74
compound="Cn1cc(-c2cc(S(C)(=O)=O)ccc2Oc2cccc(NCc3cc(F)cc(F)c3)c2)c2cc[nH]c2c1=O [Example 73]" reported_measurement=8.46
compound="CCNC(=O)c1cc2c(-c3ccc(C(=O)N(CC#N)c4ccc(OC)cc4)cc3Oc3c(C)cccc3C)cn(C)c(=O)c2[nH]1 [Example 183]" reported_measurement=7.85
compound="Cn1cc(-c2cc(S(C)(=O)=O)ccc2Oc2cccc(NS(=O)(=O)c3ccc(F)cc3Cl)c2)c2cc[nH]c2c1=O [Example 58]" reported_measurement=8.62
compound="Cn1cc(-c2cc(S(C)(=O)=O)ccc2Oc2cccc(C(=O)NC[C@H]3CCCO3)c2)c2cc[nH]c2c1=O [Example 34]" reported_measurement=8.44
compound="Cn1cc(-c2cc(S(C)(=O)=O)ccc2Oc2ccc(F)cc2F)c2cc(CNCCC(N)=O)[nH]c2c1=O [Example 159]" reported_measurement=6.81
compound="CCS(=O)(=O)Nc1ccc(Oc2ccc(F)cc2F)c(-c2cn(C)c(=O)c3[nH]c(C#CCOC)cc23)c1 [Example 163]" reported_measurement=9.22
compound="CCNC(=O)c1cc2c(-c3ccc(C(=O)N(CCCN4CCOCC4)Cc4ccccc4)cc3Oc3c(C)cccc3C)cn(C)c(=O)c2[nH]1 [Example 161]" reported_measurement=8.50
compound="CCS(=O)(=O)Nc1cc(-c2cn(C)c(=O)c3[nH]ccc23)c(Oc2ccc(F)cc2F)cc1CN(C)C [Example 2]" reported_measurement=8.40
compound="Cn1cc(-c2cc(S(C)(=O)=O)ccc2Oc2cccc(NS(=O)(=O)c3ccc(F)cc3F)c2)c2cc[nH]c2c1=O [Example 47]" reported_measurement=8.57
compound="CCS(=O)(=O)c1ccc(Oc2c(C)cccc2Cl)c(-c2cn(C)c(=O)c3[nH]c(C(=O)NCC(=O)NC)cc23)c1 [Example 124]" reported_measurement=8.00
compound="Cn1cc(-c2cc(S(C)(=O)=O)ccc2Oc2ccc(F)cc2F)c2cc(CN3CCOCC3c3ccco3)[nH]c2c1=O (stereo not drawn) [Example 127]" reported_measurement=7.03
compound="Cn1cc(-c2cc(S(C)(=O)=O)ccc2Oc2ccc(F)cc2F)c2cc(CN3CCC(N4CCOCC4)CC3)[nH]c2c1=O [Example 130]" reported_measurement=6.97
compound="Cn1cc(-c2cc(S(C)(=O)=O)ccc2NC2CCN(C(=O)CN3CCCC3)CC2)c2cc[nH]c2c1=O [Example 97]" reported_measurement=7.55
compound="CCS(=O)(=O)Nc1cc(-c2cn(C)c(=O)c3[nH]ccc23)c(Oc2ccc(F)cc2F)cc1C(=O)N(C)C [Example 10]" reported_measurement=8.08
compound="Cn1cc(-c2cc(S(C)(=O)=O)ccc2Oc2cccc(C(=O)NCCN3CCCC3)c2)c2cc[nH]c2c1=O [Example 35]" reported_measurement=8.72
